Source of measurements: patent US12227495B2

Parameter: Pre-emergence Test LOLPE percentage damage (five point scale). Scope: all listed entries.
tested on: Lolium perenne (LOLPE); assay: Pre-emergence herbicide test, glasshouse, percentage damage; assay type: in vivo; conditions: rate 1000 g/ha, evaluated after 13 days
Measured attribute: Pre-emergence Test LOLPE percentage damage (five point scale)

{"Compound": "FC(F)c1cc(-c2c(Br)cccc2Oc2cc(C(F)(F)F)ccn2)on1 [Compound A99]", "Experimental value": "3 (3=41-60%)"}
{"Compound": "Fc1cc(C(F)(F)F)cnc1Oc1cccc(F)c1-c1cc(C(F)F)no1 [Compound A21]", "Experimental value": "4 (4=61-80%)"}
{"Compound": "Fc1cnc(Oc2cccc(Br)c2-c2cc(C(F)F)no2)c(F)c1 [Compound A101]", "Experimental value": "5 (5=81-100%)"}
{"Compound": "Fc1cc(Cl)cnc1Oc1ccccc1-n1cc(Cl)cn1 [Compound A24]", "Experimental value": "4 (4=61-80%)"}
{"Compound": "FC(F)c1cc(-c2c(Br)cccc2Oc2ncc(Cl)cc2Cl)on1 [Compound A89]", "Experimental value": "2 (2=21-40%)"}
{"Compound": "FC(F)c1cc(-c2c(Cl)cccc2Oc2ccc(C(F)(F)F)cn2)on1 [Compound A110]", "Experimental value": "4 (4=61-80%)"}
{"Compound": "FC(F)c1cc(-c2c(Cl)cccc2Oc2ncc(Cl)cc2Cl)on1 [Compound A109]", "Experimental value": "2 (2=21-40%)"}
{"Compound": "Fc1cc(Br)cnc1Oc1cccc(F)c1-c1cc(C(F)F)no1 [Compound A20]", "Experimental value": "5 (5=81-100%)"}
{"Compound": "Fc1cccc(Oc2cccc(OC(F)F)n2)c1-c1cc(C(F)F)no1 [Compound A48]", "Experimental value": "1 (1=0-20%)"}
{"Compound": "CS(=O)(=O)c1cnc(Oc2cccc(F)c2-c2cc(C(F)F)no2)c(F)c1 [Compound A39]", "Experimental value": "1 (1=0-20%)"}
{"Compound": "Fc1cc(Cl)cnc1Oc1ccccc1-n1ncc(C(F)(F)F)n1 [Compound A81]", "Experimental value": "1 (1=0-20%)"}
{"Compound": "COc1cccc(Oc2ncc(Cl)cc2F)c1-n1cc(C(F)(F)F)cn1 [Compound A36]", "Experimental value": "3 (3=41-60%)"}
{"Compound": "O=[N+]([O-])c1cccc(Oc2ncc(Cl)cc2F)c1-n1cc(C(F)(F)F)cn1 [Compound A46]", "Experimental value": "1 (1=0-20%)"}
{"Compound": "Fc1cccc(Oc2cc(OC(F)(F)F)ccn2)c1-c1cc(C(F)F)no1 [Compound A62]", "Experimental value": "1 (1=0-20%)"}
{"Compound": "Fc1cccc(Oc2cccc(C(F)(F)F)n2)c1-c1cc(C(F)F)no1 [Compound A47]", "Experimental value": "1 (1=0-20%)"}
{"Compound": "Fc1cc(Cl)cnc1Oc1cccc(F)c1-n1cc(C(F)(F)F)cn1 [Compound A58]", "Experimental value": "5 (5=81-100%)"}
{"Compound": "Fc1cc(Cl)cnc1Oc1ccccc1-n1ccc(C(F)(F)F)n1 [Compound A121]", "Experimental value": "1 (1=0-20%)"}
{"Compound": "Fc1cc(Cl)cnc1Oc1cccc(F)c1-c1ncc(C(F)F)o1 [Compound A35]", "Experimental value": "1 (1=0-20%)"}
{"Compound": "Fc1cc(Cl)cnc1Oc1ccc(Br)c(Br)c1-n1cc(C(F)(F)F)cn1 [Compound A61]", "Experimental value": "1 (1=0-20%)"}
{"Compound": "Fc1cc(Cl)cnc1Oc1ccccc1-c1ccsc1 [Compound A70]", "Experimental value": "1 (1=0-20%)"}
{"Compound": "Fc1cccc(Oc2nc(Cl)ccc2C(F)(F)F)c1-c1cc(C(F)F)no1 [Compound A80]", "Experimental value": "1 (1=0-20%)"}
{"Compound": "N#Cc1ccc(Oc2ccccc2-n2cc(C(F)(F)F)cn2)nc1 [Compound A19]", "Experimental value": "5 (5=81-100%)"}
{"Compound": "Fc1cnc(Oc2cccc(Cl)c2-c2cc(C(F)F)no2)c(F)c1 [Compound A114]", "Experimental value": "5 (5=81-100%)"}
{"Compound": "Fc1cccc(Oc2cccc(C(F)F)n2)c1-c1cc(C(F)F)no1 [Compound A55]", "Experimental value": "1 (1=0-20%)"}
{"Compound": "Fc1cccc(Oc2cccc(Cl)c2-c2cc(C(F)F)no2)n1 [Compound A111]", "Experimental value": "4 (4=61-80%)"}
